Reported kinase still bound, per cent of control values follow for various compounds
# TARGET: CAMK2D (human)
# TEST PROTOCOL: KINOMEscan competition binding
# CONDITION CONTEXT: compound 10.0 µM
Answer with a number only, understood to be in %.

CN1C(=O)c2ccccc2N(C)c2nc(Nc3ccc(N4CCC(O)CC4)cc3)ncc21    88
Nc1cnc(/C=C/c2ccc(-c3ccc(S(N)(=O)=O)cc3)o2)cn1    31
COc1cc(N2CCC(O)CC2)ccc1Nc1ncc2c(n1)N(C)c1ccccc1C(=O)N2C    27
CN1CCN(c2ccc(C(=O)Nc3ncc4c(n3)N(C)c3ccccc3C(=O)N4C)cc2)CC1    100
COc1cc(N2CCN(C)CC2)ccc1Nc1ncc2c(n1)N(C(C)C)c1ccccc1C(=O)N2    7.7
CN1C(=O)c2ccccc2N(C)c2nc(NS(=O)(=O)c3ccc(N)cc3)ncc21    100
CCN1C(=O)CC(c2ccccc2)N(C2CCCC2)c2nc(Nc3ccc(C(=O)NC4CCN(C)CC4)cc3OC)ncc21 (configuration not stated)    30
COc1cc(N2CCN(C)CC2)ccc1Nc1ncc2c(n1)Nc1ccccc1NC2=O    92
CCN1C(=O)CC(C(C)C)N(C2CCCC2)c2nc(Nc3ccc(C(=O)NC4CCN(C)CC4)cc3OC)ncc21 (configuration not stated)    23
COc1cc(N2CCN(C)CC2)ccc1Nc1ncc2c(n1)N(C)c1ccccc1N(C)C2=O    99

Can you look up the measured kinase still bound, per cent of control of `N=C1NC(=O)/C(=C/c2ccc(-c3cncc4ccccc34)o2)S1` for me?
7.6

What does the record list as kinase still bound, per cent of control for `CCOc1cc(N2CCC(O)CC2)ccc1Nc1ncc2c(n1)N(C1CCCC1)CCC(=O)N2CC` ?
27

Look up kinase still bound, per cent of control: `COc1cc(N2CCN(C)CC2)ccc1Nc1ncc2c(n1)N(C)c1ccccc1C(=O)N2C`
23

# get_value(readout='kinase still bound, per cent of control', item= `COc1cc(N2CCN(C)CC2)ccc1Nc1ncc2c(n1)N(C)c1sccc1C(=O)N2C` )
59

What does the record list as kinase still bound, per cent of control for `COc1cc(N2CCC(O)CC2)ccc1Nc1ncc2c(n1)N1CCc3cccc(c31)C(=O)N2C` ?
65

Quick check: kinase still bound, per cent of control of `N=C1NC(=O)/C(=C/c2ccc(-c3ccc(C(N)=O)cc3O)o2)S1` ?
34

Would you kindly share the measured kinase still bound, per cent of control for `O=C1NC(=O)/C(=C/c2c[nH]c(=O)c(-c3ccc(N4CCNCC4)nc3)c2)S1` ?
59

* * *

# TARGET: LIMK2 (human)
# TEST PROTOCOL: KINOMEscan competition binding
# CONDITION CONTEXT: compound 10.0 µM
OUTCOME MEASURE: kinase still bound, per cent of control (%)
Respond numerically; units are % and should not be typed.

Solved entries:
CN1C(=O)c2ccccc2N(C)c2nc(NS(=O)(=O)c3ccc(N)cc3)ncc21    100
COc1cc(C(=O)NC2CCN(C)CC2)ccc1Nc1ncc2c(n1)N(C1CCCC1)[C@@H]1CCC[C@@H]1C(=O)N2C    8.3

Now consider the entry below.
What value of kinase still bound, per cent of control has been recorded for this entry: `CN1C(=O)c2ccccc2N(C)c2nc(Nc3ccc(N4CCC(O)CC4)cc3)ncc21`
100
